Field: percent of complexes. Provide a value for each of the binders that follow.
# STUDY SYSTEM: anti-CC49 variable region (anti-idiotypic) antibodies in the serum of patient five
# ASSAY EXPLANATION: HPLC size exclusion; 5 µg cold competitor + ^125I-HuCC49 + patient serum; less complex = more competition
Numbers only, in %.

Consider the reported percent of complexes for these binders:
{"BINDER": "HuCC49 CDR variant H-1 (antibody, V domains shown) VH: QVQLVQSGAEVVKPGASVKISCKASGYTFTSYAMHWVKQNPGQRLEWIGYFSPGNDDFKYNERFKGKATLTADTSASTAYVELSSLRSEDTAVYFCTRSLNMAYWGQGTLVTVSS VL: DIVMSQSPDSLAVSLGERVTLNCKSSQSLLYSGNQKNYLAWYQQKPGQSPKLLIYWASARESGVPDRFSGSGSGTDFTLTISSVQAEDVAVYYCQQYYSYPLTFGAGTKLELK", "MEASUREMENT UNITS": "%", "percent of complexes": 3.5}
{"BINDER": "HuCC49 CDR variant L-3 (antibody, V domains shown) VH: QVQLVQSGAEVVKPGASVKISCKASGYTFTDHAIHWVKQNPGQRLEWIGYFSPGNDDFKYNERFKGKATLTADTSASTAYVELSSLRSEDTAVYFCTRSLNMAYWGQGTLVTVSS VL: DIVMSQSPDSLAVSLGERVTLNCKSSQSLLYSGNQKNYLAWYQQKPGQSPKLLIYWASARESGVPDRFSGSGSGTDFTLTISSVQAEDVAVYYCQQYYSTPYSFGAGTKLELK", "MEASUREMENT UNITS": "%", "percent of complexes": 46.7}
{"BINDER": "HuCC49 CDR variant L-1 (antibody, V domains shown) VH: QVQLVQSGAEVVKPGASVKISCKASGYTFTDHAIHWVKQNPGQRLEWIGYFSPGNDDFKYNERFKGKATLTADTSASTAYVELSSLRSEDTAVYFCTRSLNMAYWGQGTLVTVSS VL: DIVMSQSPDSLAVSLGERVTLNCKSSQSVLYSSNSKNYLAWYQQKPGQSPKLLIYWASARESGVPDRFSGSGSGTDFTLTISSVQAEDVAVYYCQQYYSYPLTFGAGTKLELK", "MEASUREMENT UNITS": "%", "percent of complexes": 14.3}
{"BINDER": "HuCC49 CDR variant L-1,2 (antibody, V domains shown) VH: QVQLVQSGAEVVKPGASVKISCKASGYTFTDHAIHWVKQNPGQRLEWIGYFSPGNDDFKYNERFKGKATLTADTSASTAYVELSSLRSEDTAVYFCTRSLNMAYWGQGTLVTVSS VL: DIVMSQSPDSLAVSLGERVTLNCKSSQSVLYSSNSKNYLAWYQQKPGQSPKLLIYWASTRESGVPDRFSGSGSGTDFTLTISSVQAEDVAVYYCQQYYSYPLTFGAGTKLELK", "MEASUREMENT UNITS": "%", "percent of complexes": 20.2}

Here is the next item to consider.
Task item: Read off the recorded percent of complexes for HuCC49 CDR variant L-2 (antibody, V domains shown) VH: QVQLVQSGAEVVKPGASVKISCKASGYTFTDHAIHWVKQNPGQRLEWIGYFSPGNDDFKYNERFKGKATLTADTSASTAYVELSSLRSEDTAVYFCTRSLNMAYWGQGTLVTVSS VL: DIVMSQSPDSLAVSLGERVTLNCKSSQSLLYSGNQKNYLAWYQQKPGQSPKLLIYWASTRESGVPDRFSGSGSGTDFTLTISSVQAEDVAVYYCQQYYSYPLTFGAGTKLELK
Reply: 2.4

Values compiled from patent US6818749.
